meta.source: the RNAGym collection of RNA variant scans (doi:10.1073/pnas.2313332121)

B1: TPR 5TU (parent)
chain: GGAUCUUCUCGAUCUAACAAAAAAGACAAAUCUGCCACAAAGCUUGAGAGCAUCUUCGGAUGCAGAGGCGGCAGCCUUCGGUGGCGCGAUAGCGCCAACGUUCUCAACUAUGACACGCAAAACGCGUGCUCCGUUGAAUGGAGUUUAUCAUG

- Variants of: B1
- MEASUREMENT NOTES: polymerase ribozyme fitness, log enrichment relative to wild type (log ratio); higher = more active; in vitro selection for triplet polymerase activity
Variants at the floor of the assay were thinned out.
Would you mind labelling by polymerase ribozyme fitness (log ratio)? At or over -3 is yes, under is no.

| MUTANT NAME | CLASS ASSIGNMENT |
| --- | --- |
| A60G U102A U109G A115C | no |
| A19U G48C C75U U77C C93G A122U A150C | no |
| U6G C85A C87G A98U A106C U148A | no |
| C14U G94C A107G G117A A142U | no |
| G42U U55G G59A G88U C96G A98G C118G | no |
| A3G A89G C93U A137C A138U G140A | no |
| C18G U31C G59C G81A C116G A138G | no |
| G25C C85U A89U U135G | no |
| A20U U56A A64C A107G G126U | no |
| U56A A91G | no |
| G81C G143C | yes |
| A28U C32U A39U G58U C87U | no |
| U9C A12G A21U G42U C51G U53A C96A | no |
| C38U C87U G94U | yes |
| C8G C116G | no |
| C54U G70A G83A U90A G143U | no |
| G11A A26C C27G C35U C87A G124A | no |
| C8U A29G A52G U56A U127G | no |
| C85U G133U | yes |
| C10G A20U A52C G86A G92U A115U G152A | no |
| A30G C54G A121U U139A U145C | no |
| A66C C85G G141A U146C | no |
| U9C A66G C76G G92U C114A | no |
| U31C A60C C95A C99G A122G | no |
| C87U C116A | yes |
| C51A C75U C95U A106C G128U | no |
| A24C A30U A138U U144G | no |
| A91G A106G | yes |
| U13G A26U C96G A120G | no |
| A91U C118A A142C U144G | no |
| A20G U56G G117C | yes |
| U9G G86A A138G | no |
| A37U U134G | yes |
| A30G U56A C85G C132U | no |
| A29U U45G G86C U148A | no |
| A21C C93A C99U G136U A142U | no |
| U55A G126U | yes |
| A29C G50U G81A C95A G133U | no |
| A73U C93U G136A | yes |
| A39G C103G G126U | no |
| A49G C63U G81C U104G | yes |
| C87U U90C C99G | no |
| A20C C93U | yes |
| U56C C57U A89U C95G A137C | no |
| U127G U144G | yes |
